Parameter growth inhibition: see the listing below.
Test: NCI Yeast Anticancer Drug Screen. Data for the wt2 strain (AID 169);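 note: 0% = growth of vehicle-treated yeast cultures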
Conditions: S. cerevisiae wt2 strain growth inhibition; at 33.0 µM; stronger effect = higher value
This is part of a sample that, as a whole, favours compounds with a hit. Of some 79,000 tested, about 15% had one in any assay. Active and inactive are the calls of the source. Cut-off read from the data, not from the text of the source: active = growth inhibition above about 70%; inactive = the rest.

Prompt: Tell me measured growth inhibition for `NNC(=S)Nc1cccc2ccccc12` please.
Completion: -16% (inactive)

Prompt: Tell me measured growth inhibition for `S=c1[nH]nc(-c2ccc(Cl)cc2)s1` please.
Completion: 69% (inactive)

Prompt: Tell me measured growth inhibition for `CCC(C)(c1ccc(O)c(C)c1)c1ccc(O)c(C)c1` please.
Completion: 98% (active)

Prompt: Tell me measured growth inhibition for `CC(=O)Oc1ccc(C(=O)c2ccccc2)c(O)c1` please.
Completion: 21% (inactive)

Prompt: Tell me measured growth inhibition for `Cc1ccc(S(=O)(=O)N(C)c2ccc(Cl)cc2C2=NCCc3ccccc32)cc1` please.
Completion: 6% (inactive)

Prompt: Tell me measured growth inhibition for `OCCN(CCO)c1ccc2c(c1)Cc1ccccc1-2` please.
Completion: 29% (inactive)
